CC50 at 3 days values for the compounds below.
assay: in vitro
Format: cell-based
condition.details: human, HepG2 or HepG2.117 cells, ATPlite, 3-days incubation (not marked with *), mean value

[
  {
    "compound": "CNC(=O)c1ccc(-n2c(NC(C)C)nc3c(c2=O)C[C@@H](C)N(C(=O)c2ccc(Cl)c(C)c2)C3)cc1",
    "CC50 at 3 days": "> 50 µM"
  },
  {
    "compound": "CNC(=O)c1ccc(-n2c(N3CCC[C@@H]3c3ccccc3)nc3c(c2=O)C[C@@H](C)N(C(=O)c2ccc(Cl)c(Cl)c2)C3)cc1 (single isomer, unassigned) [Compound C401a]",
    "CC50 at 3 days": "13.8 µM"
  },
  {
    "compound": "CC(C)Nc1nc2c(c(=O)n1-c1ccc(S(=O)(=O)NC(C)C)cc1)C[C@@H](C)N(C(=O)c1ccc(Cl)c(Cl)c1)C2",
    "CC50 at 3 days": "> 50 µM"
  },
  {
    "compound": "CNC(=O)c1ccc(-n2c(NC(C)C)nc3c(c2=O)C[C@@H](C)N(C(=O)c2cc4cc(Br)ccc4s2)C3)cc1",
    "CC50 at 3 days": "> 50 µM"
  },
  {
    "compound": "CNC(=O)c1ccc(-n2c(NC(C)C)nc3c(c2=O)C[C@@H](C)N(C(=O)c2ccc(Br)c(C)c2)C3)cc1",
    "CC50 at 3 days": "> 50 µM"
  },
  {
    "compound": "CNC(=O)c1cc(-n2c(O)nc3c(c2=O)C[C@@H](C)N(C(=O)c2ccc(Cl)c(C(F)(F)F)c2)C3)n(C)n1",
    "CC50 at 3 days": "> 50 µM"
  },
  {
    "compound": "CNC(=O)c1cc(-n2c(N[C@@H](C)c3ccc(C(F)(F)F)cc3)nc3c(c2=O)C[C@@H](C)N(C(=O)c2ccc(Cl)c(Cl)c2)C3)n(C)n1",
    "CC50 at 3 days": "> 50 µM"
  },
  {
    "compound": "CC(C)Nc1nc2c(c(=O)n1-c1ccnc(Cl)c1)C[C@@H](C)N(C(=O)c1ccc(Cl)c(Cl)c1)C2",
    "CC50 at 3 days": "> 50 µM"
  },
  {
    "compound": "CNC(=O)c1ccc(-n2c(NC(C)C)nc3c(c2=O)C[C@@H](C)N(C(=O)c2ccc4nnn(C)c4c2)C3)cc1",
    "CC50 at 3 days": "> 50 µM"
  },
  {
    "compound": "CNC(=O)c1ccc(-n2c(NC(C)C)nc3c(c2=O)C[C@@H](C)N(C(=O)c2cc4c(Cl)c(Cl)ccc4[nH]2)C3)cc1",
    "CC50 at 3 days": "6.8 µM"
  },
  {
    "compound": "CNC(=O)c1ccc(-n2c(NC(C)C)nc3c(c2=O)C[C@@H](C)N(C(=O)c2cc(C)c(C)c(Br)c2)C3)cc1",
    "CC50 at 3 days": "33.2 µM"
  },
  {
    "compound": "CNC(=O)c1ccc(-n2c(N[C@H](C)c3cccc(C(F)F)c3)nc3c(c2=O)C[C@@H](C)N(C(=O)c2ccc(Cl)c(Cl)c2)C3)cc1 (single isomer, unassigned) [Compound C660a]",
    "CC50 at 3 days": "> 50 µM"
  }
]

---

assay: in vitro
Format: cell-based
condition.details: human, HepG2 or HepG2.117 cells, 3-days incubation (unmarked values), ATPlite; mean value
// values below are reported CC50 at 3 days

[
  {
    "compound": "CC(C)Nc1nc2c(c(=O)n1-c1ccc(-c3cnc[nH]3)cc1)C[C@@H](C)N(C(=O)c1ccc(Cl)c(Cl)c1)C2",
    "unit.descriptor": "µM",
    "limit.sign": ">",
    "CC50 at 3 days": 50
  },
  {
    "compound": "COc1ccc(CNc2nc3c(c(=O)n2CC2CC2)CCN(C(=O)c2ccc(Cl)c(Cl)c2)C3)cc1",
    "unit.descriptor": "µM",
    "limit.sign": ">",
    "CC50 at 3 days": 50
  },
  {
    "compound": "Cc1cc(-c2ccc(-n3c(NC(C)C)nc4c(c3=O)C[C@@H](C)N(C(=O)c3ccc(Cl)c(Cl)c3)C4)cc2)n[nH]1",
    "unit.descriptor": "µM",
    "limit.sign": "=",
    "CC50 at 3 days": 28.7
  },
  {
    "compound": "CC(C)Nc1nc2c(c(=O)n1-c1ccc(S(C)(=O)=O)cc1)CCN(C(=O)c1ccc3ncoc3c1)C2",
    "unit.descriptor": "µM",
    "limit.sign": ">",
    "CC50 at 3 days": 50
  },
  {
    "compound": "COc1ccccc1-n1c(N[C@H](C)c2ccccc2)nc2c(c1=O)CCN(C(=O)c1ccc(Cl)c(Cl)c1)C2",
    "unit.descriptor": "µM",
    "limit.sign": "=",
    "CC50 at 3 days": 25.3
  },
  {
    "compound": "CNC(=O)c1ccc(-n2c(NC(C)C)nc3c(c2=O)C[C@@H](C)N(C(=O)c2ccc(Cl)c(Cl)c2)C3)nn1",
    "unit.descriptor": "µM",
    "limit.sign": ">",
    "CC50 at 3 days": 50
  },
  {
    "compound": "COc1ccc(CNc2nc3c(c(=O)[nH]2)C[C@@H](C)N(C(=O)c2ccc(Cl)c(Cl)c2)C3)cc1 [Compound C63A]",
    "unit.descriptor": "µM",
    "limit.sign": "=",
    "CC50 at 3 days": 30.4
  }
]

---

assay: in vitro
Assay type: cell-based
condition.details: human, HepG2 or HepG2.117 cells, ATPlite, 3-days incubation (not marked with *), mean value
Description: Cytotoxicity of the compounds was tested using HepG2 or HepG2.117 cells, incubated for 3 or 4 days in the presence of compounds. The viability of the cells was assessed using the PERKIN ELMER ATPlite Luminescence Assay System.”

[
  {
    "compound": "CNC(=O)c1ccc(-n2c(NC(C)C)nc3c(c2=O)C[C@@H](C)N(C(=O)c2ccc(C(C)(F)F)cc2)C3)cc1",
    "unit.descriptor": "µM",
    "limit.sign": ">",
    "CC50 at 3 days": 50
  },
  {
    "compound": "CNC(=O)c1ccc(-n2c(N[C@@H](CC3CC3)c3ccccc3)nc3c(c2=O)C[C@@H](C)N(C(=O)c2ccc(Cl)c(Cl)c2)C3)cc1 (single isomer, unassigned) [Compound C437b]",
    "unit.descriptor": "µM",
    "limit.sign": "=",
    "CC50 at 3 days": 29.4
  },
  {
    "compound": "CNC(=O)c1ccc(-n2c(NC(C)c3ccc(C(F)(F)F)cc3)nc3c(c2=O)C[C@@H](C)N(C(=O)c2ccc(Cl)c(Cl)c2)C3)cc1 (stereo partly drawn)",
    "unit.descriptor": "µM",
    "limit.sign": "=",
    "CC50 at 3 days": 6.5
  }
]

---

System: HBV (HepG2.117 cell line, inducibly HBV producing)
assay: Anti-HBV activity: intracellular HBV DNA by real-time PCR in HepG2.117 cells after 3 days of treatment
Format: cell-based, hepatitis B virus
condition.details: Hepatitis B virus, HepG2.117, 72 h, HepG2.117 cells, 3 days of treatment, intracellular HBV DNA by real-time PCR; mean value; read-out: EC50 (μM, mean value)

[
  {
    "compound": "COCCNC(=O)c1ccc(-n2c(NC(C)C)nc3c(c2=O)C[C@@H](C)N(C(=O)c2ccc(Cl)c(Cl)c2)C3)cc1",
    "EC50": "0.13 µM"
  },
  {
    "compound": "CC(C)Nc1nc2c(c(=O)n1-c1ccc(S(C)(=O)=O)cc1)CCN(C(=O)c1ccc3ccoc3c1)C2",
    "EC50": "11.2 µM"
  },
  {
    "compound": "CC(C)Nc1nc2c(c(=O)n1-c1ccc(-c3ccco3)cc1)CCN(C(=O)c1ccc(Cl)c(Cl)c1)C2",
    "EC50": "1.25 µM"
  },
  {
    "compound": "COc1ccccc1-n1c(NCc2ccc(Cl)cc2Cl)nc2c(c1=O)CCN(C(=O)c1ccc(Cl)c(Cl)c1)C2",
    "EC50": "> 50 µM"
  },
  {
    "compound": "COc1ccccc1-n1c(NC2CCc3ccccc32)nc2c(c1=O)CCN(C(=O)c1ccc(Cl)c(Cl)c1)C2 (stereo not shown)",
    "EC50": "22.1 µM"
  },
  {
    "compound": "COc1ccccc1-n1c(NCc2cncs2)nc2c(c1=O)CCN(C(=O)c1ccc(Cl)c(Cl)c1)C2",
    "EC50": "8.77 µM"
  },
  {
    "compound": "O=C(c1ccc(Cl)c(Cl)c1)N1CCc2c(nc(NC(CO)CO)[nH]c2=O)C1",
    "EC50": "36.5 µM"
  }
]
